target: APJ (Homo sapiens, UniProt P35414); construct: expressed in transfected cells; host or cells: CHO (CHO-A10; clone 6 for the cAMP assay); test: Receptor binding assay-2 (compound in Reference Example 2 used); settings: compound in Reference Example 2 used as ligand; read-out: IC50
Sequence (P35414 whole entry): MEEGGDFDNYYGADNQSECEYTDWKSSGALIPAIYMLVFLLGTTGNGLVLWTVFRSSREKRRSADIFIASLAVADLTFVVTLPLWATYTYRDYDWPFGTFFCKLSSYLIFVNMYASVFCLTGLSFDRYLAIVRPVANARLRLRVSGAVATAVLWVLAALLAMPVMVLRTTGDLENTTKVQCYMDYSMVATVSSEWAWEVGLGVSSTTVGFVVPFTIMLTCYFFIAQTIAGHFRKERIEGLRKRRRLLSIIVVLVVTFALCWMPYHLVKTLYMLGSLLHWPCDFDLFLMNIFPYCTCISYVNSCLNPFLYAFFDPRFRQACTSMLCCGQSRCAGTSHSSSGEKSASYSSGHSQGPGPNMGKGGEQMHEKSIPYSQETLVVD
Non-standard residues stand in square brackets, D forms with d. Residues, ends and D or L forms follow the SMILES beside them. Phe(4-Cl) = N[C@@H](Cc1ccc(Cl)cc1)C(=O)O; pGlu = O=C1CC[C@@H](C(=O)O)N1
observedProperty: log10(IC50) (log10 of the value in nM)
The common logarithm of IC50 in nM is what is listed.

CC(C)C[C@H](NC(=O)[C@H](CCCNC(=N)N)NC(=O)[C@@H]1CCCN1C(=O)[C@H](CCCNC(=N)N)NC(=O)[C@H](CCC(N)=O)NC(=O)[C@H](CCCNC(=N)N)NC(=O)[C@@H](N)CCCNC(=N)N)C(=O)N[C@@H](CO)C(=O)N[C@@H](C)C(=O)N[C@@H](CCCNC(=N)N)C(=O)NCC(=O)N1CCC[C@H]1C(=O)N[C@@H](CC1CCCCC1)C(=O)O    -1.34
CSCC[C@H](NC(=O)[C@@H]1CCCN1C(=O)CNC(=O)[C@H](CCCNC(=N)N)NC(=O)[C@H](C)NC(=O)[C@H](CO)NC(=O)[C@H](CC(C)C)NC(=O)[C@H](CCCNC(=N)N)NC(=O)[C@@H]1CCCN1C(=O)[C@H](CCCNC(=N)N)NC(=O)[C@H](CCC(N)=O)NC(=O)[C@H](CCCNC(=N)N)NC(=O)[C@@H](N)CCCNC(=N)N)C(=O)O    -1.64
CSCC[C@H](NC(=O)[C@@H]1CCCN1C(=O)CNC(=O)[C@H](CCCCN)NC(=O)[C@H](Cc1c[nH]cn1)NC(=O)[C@H](CO)NC(=O)[C@H](CC(C)C)NC(=O)[C@H](CCCNC(=N)N)NC(=O)[C@@H]1CCCN1C(=O)[C@@H](N)CCCNC(=N)N)C(=O)N1CCC[C@H]1C(=O)N[C@@H](CC1CCCCC1)C(=O)O    0.54
CSCC[C@H](NC(=O)[C@@H]1CCCN1C(=O)CNC(=O)[C@H](CCCNC(=N)N)NC(=O)[C@H](CCCNC(=N)N)NC(=O)[C@H](Cc1ccccc1)NC(=O)[C@H](CC(C)C)NC(=O)[C@H](CCCNC(=N)N)NC(=O)[C@@H]1CCCN1C(=O)[C@H](CCCNC(=N)N)NC(=O)[C@@H]1CCC(=O)N1)C(=O)N1CCC[C@H]1C(=O)N[C@@H](Cc1ccccc1)C(=O)O [Compound in Ex. 42] ([pGlu]RPRLFRRGPMPF-OH)    -0.09

# context switch: different compound, same log10(IC50)
Query :: # get_value(readout= log10(IC50), system= APJ (Homo sapiens, UniProt P35414)) for CSCC[C@H](NC(=O)[C@@H]1CCCN1C(=O)CNC(=O)[C@H](CCCCN)NC(=O)[C@H](Cc1c[nH]cn1)NC(=O)[C@H](Cc1ccccc1)NC(=O)[C@H](CC(C)C)NC(=O)[C@H](CCCNC(=N)N)NC(=O)[C@@H]1CCCN1C(=O)[C@@H](N)CCCNC(=N)N)C(=O)N1CCC[C@H]1C(=O)N[C@@H](Cc1ccc(Cl)cc1)C(=O)O [Compound in Ex. 16] (H-RPRLFHKGPMP[Phe(4-Cl)]-OH; N-terminus and C-terminus assumed)
Result :: -1.18
